Exercise: state measured EC50 for each of the molecules provided.
- measurement_target: human activated kallikrein enzyme (Homo sapiens, UniProt P03952)
- Sequence (P03952 391-638 limits assumed): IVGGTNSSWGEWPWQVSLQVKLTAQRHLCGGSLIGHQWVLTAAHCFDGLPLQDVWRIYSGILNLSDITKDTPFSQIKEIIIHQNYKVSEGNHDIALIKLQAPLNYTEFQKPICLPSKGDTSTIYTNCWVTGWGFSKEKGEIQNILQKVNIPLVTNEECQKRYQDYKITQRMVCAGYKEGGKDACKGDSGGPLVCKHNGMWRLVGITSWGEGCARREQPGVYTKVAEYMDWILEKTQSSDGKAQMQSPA
- Sequence (P03952 20-390 partner limits assumed): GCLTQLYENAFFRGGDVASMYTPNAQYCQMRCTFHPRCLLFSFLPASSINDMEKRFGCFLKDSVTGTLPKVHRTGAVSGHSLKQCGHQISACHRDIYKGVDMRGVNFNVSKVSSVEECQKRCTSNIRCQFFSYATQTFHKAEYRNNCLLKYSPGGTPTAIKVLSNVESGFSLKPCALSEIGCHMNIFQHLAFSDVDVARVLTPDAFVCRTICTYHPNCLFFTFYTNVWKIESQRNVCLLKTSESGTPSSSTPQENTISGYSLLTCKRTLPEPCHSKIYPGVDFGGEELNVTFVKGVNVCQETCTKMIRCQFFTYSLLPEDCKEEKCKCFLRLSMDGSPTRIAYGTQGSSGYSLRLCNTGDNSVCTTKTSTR
- measurement_notes: Plasma kallikrein inhibition, fluorogenic PFR-AMC substrate, 500 pM activated kallikrein format
- Type: biochemical
- measurement_parameters: 500 pM activated kallikrein, 300 uM PFR-AMC, 30 min preincubation, 10 min reaction; read-out: Primary Dose Response Assay: Average EC50

Some molecules with known EC50 results, for comparison:
[[record]]
molecule = "COc1ccnc([C@H]2C[C@@H]2C(=O)Nc2cc(NCc3cn4cc(C5CC5)ccc4n3)ncn2)c1 (racemic)"
result = "100 to 1000 nM"

[[record]]
molecule = "CN1C(=O)CN(Cc2cc(C3CC3)cn3cc(CNc4cc(NC(=O)[C@H]5C[C@@H]5c5cccc(Cl)c5)ncn4)nc23)C1=O"
result = "1 to 10 nM"


Returns the measured EC50 for the input molecule. Input: COC(=O)CN1C(=O)CN(c2cc(C3CC3)cn3cc(COc4cc(NC(=O)[C@H]5C[C@@H]5c5nccc(C)n5)nc(C)n4)nc23)C1=O
< 1 nM

----------
- measurement_target: plasma kallikrein (Homo sapiens, UniProt P03952)
- Construct: from tissue
- measurement_notes: Neat human plasma assay, FXIIa contact pathway-activated, PFR-AMC substrate
- Format: biochemical
- measurement_parameters: citrated human plasma 78% final, 10 nM human FXIIa, 100 μM PFR-AMC; read-out: Human Plasma Assay: IC90
measured_endpoint: IC90

Sample records with IC90:
[[record]]
molecule = "Cc1ccnc([C@H]2C[C@@H]2C(=O)Nc2nc(Cl)nc(NCc3cn4cc(C5CC5)cc(N5CC(=O)N(C)C5=O)c4n3)n2)n1 (racemic)"
result = "400 to 1500 nM"

[[record]]
molecule = "O=C1CN(c2cc(C3CC3)cn3cc(CNc4ccnc(NC(=O)[C@H]5C[C@@H]5c5cc(Cl)ccn5)n4)nc23)C(=O)N1 (racemic)"
result = "400 to 1500 nM"

[[record]]
molecule = "CN1C(=O)CN(c2cc(C3CC3)cn3cc(CNc4cc(NC(=O)[C@H]5C[C@@H]5c5nc(Cl)ccc5C#N)ncn4)nc23)C1=O (racemic)"
result = "400 to 1500 nM"


Hi, could you look up IC90 for each item in my list?
1. CN1C(=O)CN(c2cc(C3CC3)cn3cc(CN(C)c4cnnc(NC(=O)[C@H]5C[C@@H]5c5cccc(Cl)c5)c4)nc23)C1=O
2. O=C(Nc1nsc(NCc2cn3cc(C4CC4)ccc3n2)n1)[C@H]1C[C@@H]1c1cc(Cl)ccn1 (racemic)
3. Cc1ccnc([C@H]2C[C@@H]2C(=O)Nc2ncnc(NCc3cn4cc(C5CC5)cc(N5CC(=O)N(C)C5=O)c4n3)n2)n1 (racemic)
4. O=C(Nc1cc(NCc2cn3cc(C4CC4)ccc3n2)ccn1)[C@H]1C[C@@H]1c1cc(Cl)ccn1 (racemic) [Example I-268]
5. CN1CC(=O)N(c2cc(C3CC3)cn3cc(CNc4cc(NC(=O)[C@H]5C[C@@H]5c5cccc(Cl)c5)ncn4)nc23)CC1=O

400 to 1500 nM
10000 to 48000 nM
< 400 nM
10000 to 48000 nM
400 to 1500 nM

----------
- measurement_target: human activated kallikrein enzyme (Homo sapiens, UniProt P03952)
- measurement_notes: Plasma kallikrein inhibition, fluorogenic PFR-AMC substrate, 500 pM activated kallikrein format
- Format: biochemical
- measurement_parameters: 500 pM activated kallikrein, 300 uM PFR-AMC, 30 min preincubation, 10 min reaction; read-out: Primary Dose Response Assay: Average EC50
Provide the recorded EC50 for the entries that follow.

A selection of reference data follows.
[[record]]
compound = "COc1cc(NC(=O)[C@H]2C[C@@H]2c2nccc(C)n2)nc(OCc2cn3cc(C4CC4)cc(N4CC(=O)N(C)C4=O)c3n2)c1 [Example 38]"
measurement_target = "human activated kallikrein enzyme (Homo sapiens, UniProt P03952)"
result = "1 to 10 nM"

[[record]]
compound = "Cc1ccnc([C@H]2C[C@@H]2C(=O)Nc2ncnc(NCc3cn4cc(C5CC5)cc(N5CC(=O)N(C)C5=O)c4n3)n2)n1 (racemic) [Example 623]"
measurement_target = "human activated kallikrein enzyme (Homo sapiens, UniProt P03952)"
result = "< 1 nM"

[[record]]
compound = "Cc1nc(NC(=O)[C@H]2C[C@@H]2c2nsc(C)n2)cc(N[C@H](C)c2cn3cc(C4CC4)cc(N4CC(=O)N(C)C4=O)c3n2)n1 (relative stereo) [Example 527]"
measurement_target = "human activated kallikrein enzyme (Homo sapiens, UniProt P03952)"
result = "1 to 10 nM"

[[record]]
compound = "Cc1ccnc([C@H]2C[C@@H]2C(=O)Nc2cc(N3C[C@@H](O)C[C@@H]3c3cn4cc(C5CC5)cc(N5CC(=O)N(C)C5=O)c4n3)ncn2)n1 (relative stereo) [Example 473]"
measurement_target = "human activated kallikrein enzyme (Homo sapiens, UniProt P03952)"
result = "< 1 nM"

[[record]]
compound = "O=C(Nc1cc(NCc2cn3cc(C4CC4)ccc3n2)nc(N2CCCC2)n1)[C@@H]1C[C@H]1c1cccc(Cl)c1 (racemic) [Example 105]"
measurement_target = "human activated kallikrein enzyme (Homo sapiens, UniProt P03952)"
result = "100 to 1000 nM"


What measured EC50 goes with COc1cccc([C@H]2C[C@@H]2C(=O)Nc2cc(NCc3cn4cc(C5CC5)ccc4n3)ncn2)c1 (racemic) [Example 53] ?
100 to 1000 nM
